B1: Zinc finger homeobox protein 3, residues 2147 to 2202; numbered along this chain, Q15911 (parent)
chain: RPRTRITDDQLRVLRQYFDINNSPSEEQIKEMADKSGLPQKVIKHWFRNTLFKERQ

Variants of: B1
Assay: abundance fitness (aPCA) (normalised: wild type 0, dead -1); higher = more abundant; growth selection in yeast, the domain comes from the species named
Conditions: Homo sapiens
So basically: abundance fitness at -0.2 or higher? That is satisfied. Lower than -0.2? That is not satisfied.

Check this variant for abundance fitness at or above -0.2: R55F
satisfied

Check this variant for abundance fitness at or above -0.2: R1L
not satisfied

Check this variant for abundance fitness at or above -0.2: F18V
not satisfied

Check this variant for abundance fitness at or above -0.2: P2R
satisfied

Check this variant for abundance fitness at or above -0.2: R55C
not satisfied

Check this variant for abundance fitness at or above -0.2: S23R
satisfied

Check this variant for abundance fitness at or above -0.2: R1M
not satisfied

Check this variant for abundance fitness at or above -0.2: I29N
not satisfied

Check this variant for abundance fitness at or above -0.2: Q40H
satisfied

Check this variant for abundance fitness at or above -0.2: T4S
satisfied

Check this variant for abundance fitness at or above -0.2: N49Y
satisfied

Check this variant for abundance fitness at or above -0.2: G37D
satisfied

Check this variant for abundance fitness at or above -0.2: L51K
satisfied

Check this variant for abundance fitness at or above -0.2: K35N
satisfied

Check this variant for abundance fitness at or above -0.2: Q56S
not satisfied

Check this variant for abundance fitness at or above -0.2: L38G
not satisfied

Check this variant for abundance fitness at or above -0.2: P2S
satisfied

Check this variant for abundance fitness at or above -0.2: E54R
satisfied

Check this variant for abundance fitness at or above -0.2: S36D
not satisfied

Check this variant for abundance fitness at or above -0.2: D19W
satisfied

Check this variant for abundance fitness at or above -0.2: N49P
not satisfied

Check this variant for abundance fitness at or above -0.2: T4W
not satisfied

Check this variant for abundance fitness at or above -0.2: R15K
satisfied

Check this variant for abundance fitness at or above -0.2: F52R
satisfied

Check this variant for abundance fitness at or above -0.2: S23I
not satisfied

Check this variant for abundance fitness at or above -0.2: K30N
not satisfied

Check this variant for abundance fitness at or above -0.2: N21K
satisfied

Check this variant for abundance fitness at or above -0.2: N49A
satisfied

Check this variant for abundance fitness at or above -0.2: T7F
not satisfied

Check this variant for abundance fitness at or above -0.2: Q40R
satisfied
